Reference source: PubChem BioAssay (NCI)

test system: MALME-3M melanoma; assay: NCI tumour cell line growth inhibition, 48 h

Molecule	Unit name	Comparison symbol	TGI
CCN(/C=C1/C(=O)C(c2ccccc2)N(c2ccccc2)C1=O)CC (stereo not given)	µM	>	10
OCCCCC#Cc1ccccc1C#Cc1cccc(C(F)(F)F)c1	µM	=	48.5
O=C(CSCC(=O)N/N=C/c1cccc(O)c1)N/N=C/c1cccc(O)c1	µM	>	100
C[C@@H](CC(=O)OCc1ccccc1)OC1OC(COC(=O)C(C)(C)C)C(OC(=O)C(C)(C)C)C(OC(=O)C(C)(C)C)C1OC(=O)C(C)(C)C (stereo not given in full)	µM	>	100
CCN(CC)CCNc1ccc2ncn3c4ccc(O)cc4c(=O)c1c23	µM	=	15.8
CC(C)Cc1ccc(C(C)/C=C2\CCC(CN(C)C)C2=O)cc1 (stereo not given)	µM	=	32.2
COc1ccc(-c2cc(/C=C/C(=O)c3ccc(N)cc3)[nH]n2)cc1OC	µM	=	21.2
O=NN(CCCl)C(=O)NC1CCC(CC(=O)O)CC1 (stereo not given)	µM	>	100
O=C1N[C@@H]2CCCC[C@@H]2C12CCCCC2	µM	>	100
COC(CN(C)C(=S)Nc1cccc2ccccc12)OC	µM	>	10
